# TEST_SUMMARY: Tmax in Sprague-Dawley rat at 1 mg/kg, iv
# Type: ADME, organism-based
# Design: dose 1 mg/kg, route intravenous
# ASSAY_SETUP: in vivo
READOUT: Tmax (min)
Give your result in min as a bare value.

Item Cc1cc(S(=O)(=O)N[C@@H](C(=O)NO)C2CCOCC2)ccc1F has what recorded Tmax?
18

* * *

# TGT: UniProt P08254
# Sequence (P08254 whole entry): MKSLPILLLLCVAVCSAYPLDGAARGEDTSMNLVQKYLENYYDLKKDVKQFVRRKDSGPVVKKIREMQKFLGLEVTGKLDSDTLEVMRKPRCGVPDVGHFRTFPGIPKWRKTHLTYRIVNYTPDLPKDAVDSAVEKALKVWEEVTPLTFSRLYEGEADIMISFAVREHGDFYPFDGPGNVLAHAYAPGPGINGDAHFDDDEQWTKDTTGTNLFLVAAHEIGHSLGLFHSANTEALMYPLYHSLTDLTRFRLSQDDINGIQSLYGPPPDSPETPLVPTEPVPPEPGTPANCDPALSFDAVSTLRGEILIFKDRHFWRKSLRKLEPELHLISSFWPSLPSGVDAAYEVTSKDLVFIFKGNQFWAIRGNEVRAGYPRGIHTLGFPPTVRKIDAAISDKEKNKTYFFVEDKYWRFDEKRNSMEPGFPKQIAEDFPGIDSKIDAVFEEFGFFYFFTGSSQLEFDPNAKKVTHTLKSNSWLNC
READOUT: pIC50
pIC50 is defined as minus the log10 of a concentration measured in mol/L.

Look at this compound and give its reported pIC50. Cc1cc(S(=O)(=O)N[C@@H](C(=O)NO)C2CCOCC2)ccc1F
5.85

* * *

# TEST_SUMMARY: Clearance in New Zealand White rabbit at 5 mg/kg, iv
# Assay type: ADME, organism-based, Oryctolagus cuniculus
# Parameters: dose 5 mg/kg, route intravenous
# ASSAY_SETUP: in vivo
READOUT: clearance (mL/min/kg)
Reply numerically in mL/min/kg, unit not repeated.

// lookup clearance for Cc1cc(S(=O)(=O)N[C@@H](C(=O)NO)C2CCOCC2)ccc1F
35

* * *

# TEST_SUMMARY: Cmax in Beagle dog at 1 mg/kg, iv
# Type: ADME, organism-based, Canis lupus familiaris
# Set-up: dose 1 mg/kg, route intravenous
# ASSAY_SETUP: in vivo
READOUT: Cmax (nM)
# value in nM; strip the unit string

Which Cmax value is on record for Cc1cc(S(=O)(=O)N[C@@H](C(=O)NO)C2CCOCC2)ccc1F ?
730

* * *

# TEST_SUMMARY: Tmax in BALB/c mice at 10 mg/kg, iv
# Assay type: ADME, organism-based
# Design: dose 10 mg/kg, route intravenous
# ASSAY_SETUP: mouse, in vivo
READOUT: Tmax (min)
API: value field is a number in min; no unit string.

What value of measured Tmax is listed for Cc1cc(S(=O)(=O)N[C@@H](C(=O)NO)C2CCOCC2)ccc1F ?
18

* * *

# TEST_SUMMARY: Half life in Beagle dog at 1 mg/kg, iv
# Format: ADME, organism-based, Canis lupus familiaris
# Set-up: dose 1 mg/kg, route intravenous
# ASSAY_SETUP: in vivo
READOUT: half-life
Express the reported value numerically, then name its unit.

What value of measured half-life is listed for Cc1cc(S(=O)(=O)N[C@@H](C(=O)NO)C2CCOCC2)ccc1F ?
4.7 h

* * *

# TGT: Interstitial collagenase (Homo sapiens, UniProt P03956)
# Sequence (P03956 whole entry): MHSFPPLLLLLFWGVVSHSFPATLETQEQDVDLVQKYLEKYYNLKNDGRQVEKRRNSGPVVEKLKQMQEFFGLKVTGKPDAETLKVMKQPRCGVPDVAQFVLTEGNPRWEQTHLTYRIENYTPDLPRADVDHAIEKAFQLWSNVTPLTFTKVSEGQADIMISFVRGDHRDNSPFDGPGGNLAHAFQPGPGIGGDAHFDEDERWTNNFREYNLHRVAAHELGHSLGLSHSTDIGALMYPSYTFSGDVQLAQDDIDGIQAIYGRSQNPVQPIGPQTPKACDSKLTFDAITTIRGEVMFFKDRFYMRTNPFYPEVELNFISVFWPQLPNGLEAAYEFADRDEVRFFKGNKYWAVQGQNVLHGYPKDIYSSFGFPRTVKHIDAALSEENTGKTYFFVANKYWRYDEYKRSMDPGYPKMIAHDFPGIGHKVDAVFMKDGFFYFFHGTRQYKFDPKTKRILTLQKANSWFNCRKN
READOUT: IC50 (µM)
Could you give me the number in µM? Just the number is fine.

For Interstitial collagenase (Homo sapiens, UniProt P03956), provide IC50 of Cc1cc(S(=O)(=O)N[C@@H](C(=O)NO)C2CCOCC2)ccc1F please.
2.2

* * *

# TGT: Matrix metalloproteinase-14 (Homo sapiens)
READOUT: IC50 (µM)
Expressed in µM, but write only the number.

Reported IC50, molecule Cc1cc(S(=O)(=O)N[C@@H](C(=O)NO)C2CCOCC2)ccc1F : ____
6.5

* * *

# TEST_SUMMARY: Bioavailability in Sprague-Dawley rat at 2 mg/ml, po
# Assay type: ADME, organism-based
# ASSAY_SETUP: in vivo
READOUT: bioavailability (%)
All answers are understood in %, so give the number only.

// lookup bioavailability for Cc1cc(S(=O)(=O)N[C@@H](C(=O)NO)C2CCOCC2)ccc1F
71
